Entries with their measured pKi, system human vasopressin V1b receptor (Homo sapiens):
pKi: −log10 of the molar value. Where a name gives a salt, the structure may show the parent alone.

CCOc1ccc(OC)cc1C1(N2CCN(C3CCNCC3)CC2)C(=O)N(S(=O)(=O)c2ccc(OC)c3cccnc23)c2ccc(C#N)cc21 (racemic) [Example 69, hydrochloride] ... 7.30 to 8.00
CCOc1ccccc1C1(N2CCN(c3ccncc3)CC2)C(=O)N(S(=O)(=O)c2ccc(Cl)c3cccnc23)c2ccc(C#N)cc21 (racemic) ... 7.30 to 8.00
CCOc1nc(Cl)ccc1C1(N2CCN(c3ccncc3)CC2)C(=O)N(S(=O)(=O)c2ccc(OC)cc2OC)c2ccc(C#N)cc21 (racemic) ... 7.30 to 8.00
CCOc1ccccc1C1(N2CCN(c3ccncc3)CC2)C(=O)N(S(=O)(=O)c2ccc(OC)cn2)c2ccc(C#N)cc21 (single isomer, unassigned; (+)) ... > 8.00

I'm hoping you can list pKi for every molecule here, please.
1. CCOc1nc(Cl)ccc1C1(N2CCN(c3ccncc3)CC2)C(=O)N(S(=O)(=O)c2ccc(OC)cn2)c2ccc(C#N)cc21 (racemic)
2. CCOc1nc(Cl)ccc1C1(N2CCN(c3ccnc(C)c3)CC2)C(=O)N(S(=O)(=O)c2cccc3cccnc23)c2ccc(C#N)cc21 (racemic)
3. CCOc1nc(Cl)ccc1C1(N2CCC(N3CCNCC3)CC2)C(=O)N(S(=O)(=O)c2ccc(OC)cn2)c2ccc(C#N)cc21 (racemic)

[reply]
1: > 8.00; 2: 7.30 to 8.00; 3: > 8.00

Report pKi for every entry below.
1. CCOc1ccccc1C1(N2CCN(c3ccncc3)CC2)C(=O)N(S(=O)(=O)c2ccc(F)c3cccnc23)c2ccc(C#N)cc21 (racemic)
2. CCOc1ccc(OC)cc1C1(N2CCC(C3CCNCC3)CC2)C(=O)N(S(=O)(=O)c2ccc(OC)cn2)c2ccc(C#N)cc21 (racemic)

[reply]
1: 7.30 to 8.00; 2: > 8.00

Consider the following items and state reported pKi for each.
1. CCOc1ccc(OC)cc1C1(N2CCN(c3ccncc3)CC2)C(=O)N(S(=O)(=O)c2ccc(Cl)c3cccnc23)c2ccc(C#N)cc21 (racemic)
2. CCOc1ccc(OC)cc1C1(N2CCC(N3CCNCC3)CC2)C(=O)N(S(=O)(=O)c2ccc(OC)c3cccnc23)c2ccc(C#N)cc21 (racemic) [Example 87, hydrochloride]
3. CCOc1cc(F)ccc1C1(N2CCCN(c3ccncc3)CC2)C(=O)N(S(=O)(=O)c2ccc(OC)cn2)c2ccc(C#N)cc21 (racemic)

[reply]
1: 7.30 to 8.00; 2: > 8.00; 3: 7.30 to 8.00

The values you see were collected from patent US8486931B2.
